B1: TMEM175 (parent)
chain: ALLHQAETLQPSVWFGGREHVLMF

Variants of: B1
Assay: protein stability index of a GFP-peptide fusion (GPS, HEK-293T) (PSI 1-6); higher = more stable;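 also: lentivirally expressed fusions sorted by FACS into six bins by GFP to DsRed ratio, PSI derived from sequencing read proportions per bin multiplied by bin number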
Conditions: c terminus: a fixed tail appended
The entries below are paired with their reported protein stability index.
Number only, no unit.

Here is how some variants turned out for protein stability index.
L9N = 1.97
F24T = 2
V21N = 2.02
V13R = 2.02

Query Q10M yields protein stability index of 1.96

Query L22M yields protein stability index of 2.03
